assay: Cell viability in normal cells, HaCaT; type: cell-based; conditions: human, HaCaT normal human keratinocytes, 20 μM, mean (n = 3)
Reported viability at 20 µM values are given for each entry in this list.

# Mol Smiles, Unit Name, viability at 20 µM
data = [
    ("COc1cccc(CNC(=O)c2cc3cc(O)ccc3s2)c1", "%", 67.6),
    ("O=C(NCc1cc(F)cc(F)c1)c1cc2cc(O)ccc2s1", "%", 64.9),
]

====

target: UniProtKB P49760; assay: Z'-LYTE kinase inhibition assay, Clk2; assay type: biochemical; settings: 1 µM compound; screening by Thermo Fisher Scientific
Sequence (P49760 whole entry): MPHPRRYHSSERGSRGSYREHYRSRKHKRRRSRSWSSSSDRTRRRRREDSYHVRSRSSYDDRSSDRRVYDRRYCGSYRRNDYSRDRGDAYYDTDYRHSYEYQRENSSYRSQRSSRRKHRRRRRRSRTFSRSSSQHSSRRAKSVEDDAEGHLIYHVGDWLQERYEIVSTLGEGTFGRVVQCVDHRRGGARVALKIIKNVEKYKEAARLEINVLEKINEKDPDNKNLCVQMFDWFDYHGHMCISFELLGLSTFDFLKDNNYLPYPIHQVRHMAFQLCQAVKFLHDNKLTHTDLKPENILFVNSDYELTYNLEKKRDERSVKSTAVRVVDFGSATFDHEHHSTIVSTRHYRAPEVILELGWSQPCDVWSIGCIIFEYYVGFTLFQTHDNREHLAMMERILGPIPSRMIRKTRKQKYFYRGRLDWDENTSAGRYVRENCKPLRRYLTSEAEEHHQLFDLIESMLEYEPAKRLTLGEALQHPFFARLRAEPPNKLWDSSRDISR

# Mol Smiles, Measured Target, inhibition at 1 µM, %
measured = [
    ("O=C(NCc1cc(F)cc(F)c1)c1cc2cc(O)ccc2s1", "UniProtKB P49760", 62),
    ("O=C(NCc1cccc(F)c1)c1cc2cc(O)ccc2s1", "UniProtKB P49760", 38),
    ("O=C(NCc1cccc(Cl)c1)c1cc2cc(O)ccc2s1", "UniProtKB P49760", 46),
    ("COc1ccccc1CNC(=O)c1cc2cc(O)ccc2s1", "UniProtKB P49760", 50),
    ("COc1cccc(CNC(=O)c2cc3cc(O)ccc3s2)c1", "UniProtKB P49760", 62),
]
